target system: murine EP4 (Mus musculus)
Sequence (P32240 whole entry): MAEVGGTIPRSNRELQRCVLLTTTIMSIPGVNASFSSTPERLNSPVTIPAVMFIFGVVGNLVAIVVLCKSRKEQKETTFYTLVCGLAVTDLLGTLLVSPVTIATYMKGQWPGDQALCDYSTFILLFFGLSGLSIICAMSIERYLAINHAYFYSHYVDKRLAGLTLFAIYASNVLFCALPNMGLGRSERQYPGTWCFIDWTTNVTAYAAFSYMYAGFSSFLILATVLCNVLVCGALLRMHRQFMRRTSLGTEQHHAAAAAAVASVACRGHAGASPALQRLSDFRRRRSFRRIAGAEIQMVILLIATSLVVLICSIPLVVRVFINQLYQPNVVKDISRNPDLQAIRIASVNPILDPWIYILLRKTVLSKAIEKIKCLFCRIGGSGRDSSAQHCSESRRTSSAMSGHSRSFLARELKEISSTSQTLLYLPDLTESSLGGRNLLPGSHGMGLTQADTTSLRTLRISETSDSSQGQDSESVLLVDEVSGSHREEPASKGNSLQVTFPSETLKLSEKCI
observation type: Ki

• CCCc1cccc(C[C@H](O)/C=C/[C@H]2CCC(=O)N2CCSCCCC(=O)O)c1 [Example 3(e)] = 0.71 nM
